Please go through the items and note down their solubility (mole fraction).
- condition.label: in n-octanol, 318.15 K

Solved entries:
compound | measurement.name | val
CCn1cc(C(=O)O)c(=O)c2cc(F)c(N3CCNCC3)cc21 | solubility (mole fraction) | 0.000177
CCn1cc(C(=O)O)c(=O)c2cc(F)c(N3CCNC(C)C3)c(F)c21 (stereo not drawn) | solubility (mole fraction) | 7.63e-06

Shifting focus to the compound that follows.
Lab book: solubility (mole fraction) of CCn1cc(C(=O)O)c(=O)c2cnc(N3CCNCC3)nc21 noted as 3.25e-06

###

- condition.label: in n-octanol, 328.15 K
Please go through the items and note down their solubility (mole fraction).
Answers are plain numbers.

Solved entries:
compound | solubility (mole fraction)
CCn1cc(C(=O)O)c(=O)c2cc(F)c(N3CCNC(C)C3)c(F)c21 (stereo not drawn) | 1.3e-05
CCn1cc(C(=O)O)c(=O)c2cc(F)c(N3CCNCC3)cc21 | 0.000284

Shifting focus to the compound that follows.
Lab book: solubility (mole fraction) of CCn1cc(C(=O)O)c(=O)c2cnc(N3CCNCC3)nc21 noted as 4.97e-06

###

Please go through the items and note down their solubility (mole fraction).
- condition.label: in n-octanol, 298.15 K
One number for each entry.

Solved entries:
compound | solubility (mole fraction)
CCn1cc(C(=O)O)c(=O)c2cnc(N3CCNCC3)nc21 | 1.2e-06
CCn1cc(C(=O)O)c(=O)c2cc(F)c(N3CCNC(C)C3)c(F)c21 (stereo not drawn) | 2.76e-06

Shifting focus to the compound that follows.
Lab book: solubility (mole fraction) of CCn1cc(C(=O)O)c(=O)c2cc(F)c(N3CCNCC3)cc21 noted as 6.62e-05

###

Please go through the items and note down their solubility (mole fraction).
- condition.label: in n-octanol, 313.15 K
Give bare numbers.

Solved entries:
molecule | val
CCn1cc(C(=O)O)c(=O)c2cc(F)c(N3CCNCC3)cc21 | 0.00014
CCn1cc(C(=O)O)c(=O)c2cc(F)c(N3CCNC(C)C3)c(F)c21 (stereo not drawn) | 5.88e-06

Lab book: solubility (mole fraction) of CCn1cc(C(=O)O)c(=O)c2cnc(N3CCNCC3)nc21 noted as 2.6e-06

Value source: BigSolDB 2.1
